Assignment: determine reported Ratio IC50 for the given compounds.
# protocol: Selectivity ratio of IC50 for Electrophorus electricus acetylcholinesterase to IC50 for equine serum butyrylcholinesterase
Numbers only.

// solved cases for Ratio IC50 follow
compound	Ratio IC50
Clc1ccc(C2=CSC3=NC4=C(CNC/C4=C\c4ccccc4)C(c4ccccc4)N23)cc1 (centres undefined)	0.54
COc1ccc(C2=CSC3=NC4=C(CNC/C4=C\c4ccc(C)cc4)C(c4ccc(C)cc4)N23)cc1 (centres undefined)	0.99
Fc1ccc(C2=CSC3=NC4=C(CNC/C4=C\c4ccc(Cl)cc4)C(c4ccc(Cl)cc4)N23)cc1 (centres undefined)	0.36
COc1ccccc1/C=C1\CNCC2=C1N=C1SC=C(c3ccccc3)N1C2c1ccccc1OC (centres undefined)	1.03
COc1ccccc1/C=C1\CNCC2=C1N=C1SC=C(c3ccc(Cl)cc3)N1C2c1ccccc1OC (centres undefined)	0.17

Would you mind listing Ratio IC50 for each of the following compounds?
1. COc1ccc(C2=CSC3=NC4=C(CNC/C4=C\c4ccccc4)C(c4ccccc4)N23)cc1 (centres undefined)
2. COc1ccc(C2=CSC3=NC4=C(CNC/C4=C\c4ccc(Cl)cc4)C(c4ccc(Cl)cc4)N23)cc1 (centres undefined)
3. Fc1ccc(/C=C2\CNCC3=C2N=C2SC=C(c4ccc(F)cc4)N2C3c2ccc(F)cc2)cc1 (centres undefined)
4. Cc1ccc(/C=C2\CNCC3=C2N=C2SC=C(c4ccccc4)N2C3c2ccc(C)cc2)cc1 (centres undefined)

Given back:
[1.52, 0.66, 0.83, 0.31]

* * *

# target.or.test.system: Acetylcholinesterase (Electrophorus electricus, UniProt O42275)
# Sequence (O42275 whole entry): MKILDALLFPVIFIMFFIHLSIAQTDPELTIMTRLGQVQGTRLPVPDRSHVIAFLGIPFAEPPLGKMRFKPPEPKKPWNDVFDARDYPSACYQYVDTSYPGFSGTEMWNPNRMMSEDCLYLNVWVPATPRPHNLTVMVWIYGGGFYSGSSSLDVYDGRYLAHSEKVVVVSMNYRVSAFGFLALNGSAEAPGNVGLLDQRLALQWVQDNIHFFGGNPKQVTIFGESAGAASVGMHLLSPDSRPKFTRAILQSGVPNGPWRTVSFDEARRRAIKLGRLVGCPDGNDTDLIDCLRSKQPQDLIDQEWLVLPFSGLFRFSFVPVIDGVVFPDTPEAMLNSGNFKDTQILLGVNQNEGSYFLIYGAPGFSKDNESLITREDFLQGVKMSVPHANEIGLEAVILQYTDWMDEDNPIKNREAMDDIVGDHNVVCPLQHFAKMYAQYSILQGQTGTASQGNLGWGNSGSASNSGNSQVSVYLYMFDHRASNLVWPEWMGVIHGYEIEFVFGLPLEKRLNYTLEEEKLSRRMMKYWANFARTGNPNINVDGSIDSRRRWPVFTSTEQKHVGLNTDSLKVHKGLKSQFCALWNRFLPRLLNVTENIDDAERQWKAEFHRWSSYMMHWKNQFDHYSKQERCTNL
metric.name: pIC50
Numbers only, as −log10 of the molar value.

Some compounds with known pIC50 results, for comparison:
compound	pIC50
COc1ccc(C2=CSC3=NC4=C(CNC/C4=C\c4ccc(C)cc4)C(c4ccc(C)cc4)N23)cc1 (stereo unspecified)	4.98
COc1ccc(C2=CSC3=NC4=C(CNC/C4=C\c4ccccc4Cl)C(c4ccccc4Cl)N23)cc1 (stereo unspecified)	5.10
Fc1ccc(/C=C2\CNCC3=C2N=C2SC=C(c4ccc(F)cc4)N2C3c2ccc(F)cc2)cc1 (stereo unspecified)	4.88
COc1ccc(C2=CSC3=NC4=C(CNC/C4=C\c4ccccc4OC)C(c4ccccc4OC)N23)cc1 (stereo unspecified)	4.92
COc1ccc(C2=CSC3=NC4=C(CNC/C4=C\c4ccc(Cl)cc4)C(c4ccc(Cl)cc4)N23)cc1 (stereo unspecified)	5.07

Attention now shifts to the item below.
Asked: # pIC50 lookup, item Fc1ccc(/C=C2\CNCC3=C2N=C2SC=C(c4ccc(Cl)cc4)N2C3c2ccc(F)cc2)cc1 (stereo unspecified)
Given back: 4.99

* * *

# target.or.test.system: Cholinesterase (Equus caballus)
# Sequence (P81908 whole entry): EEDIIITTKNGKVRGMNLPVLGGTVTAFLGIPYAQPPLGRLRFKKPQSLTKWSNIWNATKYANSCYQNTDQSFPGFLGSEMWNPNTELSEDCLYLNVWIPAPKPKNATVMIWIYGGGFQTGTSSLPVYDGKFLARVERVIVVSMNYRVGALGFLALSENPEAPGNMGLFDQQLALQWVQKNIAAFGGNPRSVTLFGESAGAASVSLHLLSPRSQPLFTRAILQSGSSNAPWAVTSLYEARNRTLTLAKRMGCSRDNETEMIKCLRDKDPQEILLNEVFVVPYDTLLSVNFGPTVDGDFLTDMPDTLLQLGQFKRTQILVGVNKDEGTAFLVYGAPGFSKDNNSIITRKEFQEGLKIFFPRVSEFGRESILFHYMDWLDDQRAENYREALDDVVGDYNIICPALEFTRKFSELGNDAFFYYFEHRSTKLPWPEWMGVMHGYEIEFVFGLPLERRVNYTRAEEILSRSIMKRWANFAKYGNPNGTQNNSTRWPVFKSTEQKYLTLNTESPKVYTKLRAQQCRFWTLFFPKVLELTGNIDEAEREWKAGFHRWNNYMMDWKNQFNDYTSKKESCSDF
# protocol: Inhibition of equine serum butyrylcholinesterase using S-butyrylthiocholine chloride as substrate preincubated for 15 mins followed by substrate addition measured for 30 mins by Ellman's method
metric.name: pIC50
Answers are plain numbers, as −log10 of the molar value.

Please review the following examples before continuing.
compound	pIC50
COc1ccc(C2=CSC3=NC4=C(CNC/C4=C\c4ccc(C)cc4)C(c4ccc(C)cc4)N23)cc1 (stereo not drawn)	4.98
COc1ccc(C2=CSC3=NC4=C(CNC/C4=C\c4ccccc4)C(c4ccccc4)N23)cc1 (stereo not drawn)	4.98

Batch request: pIC50 per item, same order as input.
1. COc1ccccc1/C=C1\CNCC2=C1N=C1SC=C(c3ccc(F)cc3)N1C2c1ccccc1OC (stereo not drawn)
2. COc1ccccc1/C=C1\CNCC2=C1N=C1SC=C(c3ccc(Cl)cc3)N1C2c1ccccc1OC (stereo not drawn)
3. Clc1ccc(C2=CSC3=NC4=C(CNC/C4=C\c4ccccc4)C(c4ccccc4)N23)cc1 (stereo not drawn)
4. Clc1ccccc1/C=C1\CNCC2=C1N=C1SC=C(c3ccccc3)N1C2c1ccccc1Cl (stereo not drawn)
5. Cc1ccc(/C=C2\CNCC3=C2N=C2SC=C(c4ccccc4)N2C3c2ccc(C)cc2)cc1 (stereo not drawn)
6. COc1ccc(C2=CSC3=NC4=C(CNC/C4=C\c4ccc(Cl)cc4)C(c4ccc(Cl)cc4)N23)cc1 (stereo not drawn)

Given back:
1: 5.06; 2: 4.53; 3: 4.35; 4: 5.57; 5: 5.77; 6: 4.89

For every listed record, write down its pIC50.
1. Fc1ccc(/C=C2\CNCC3=C2N=C2SC=C(c4ccc(F)cc4)N2C3c2ccc(F)cc2)cc1 (stereo not drawn)
2. Cc1ccc(/C=C2\CNCC3C2NC(=S)NC3c2ccc(C)cc2)cc1 (stereo not drawn)
3. S=C1NC2/C(=C/c3ccc(Cl)cc3)CNCC2C(c2ccc(Cl)cc2)N1 (stereo not drawn)
4. COc1ccccc1/C=C1\CNCC2=C1N=C1SC=C(c3ccccc3)N1C2c1ccccc1OC (stereo not drawn)
5. Fc1ccc(/C=C2\CNCC3=C2N=C2SC=C(c4ccc(Cl)cc4)N2C3c2ccc(F)cc2)cc1 (stereo not drawn)
6. Fc1ccc(/C=C2\CNCC3C2NC(=S)NC3c2ccc(F)cc2)cc1 (stereo not drawn)

Given back:
4.80
5.20
5.20
5.39
4.65
4.54

Report pIC50 for every entry below.
1. COc1ccccc1/C=C1\CNCC2C1NC(=S)NC2c1ccccc1OC (stereo not drawn)
2. Clc1ccc(C2=CSC3=NC4=C(CNC/C4=C\c4ccccc4Cl)C(c4ccccc4Cl)N23)cc1 (stereo not drawn)
3. Clc1ccc(/C=C2\CNCC3=C2N=C2SC=C(c4ccc(Cl)cc4)N2C3c2ccc(Cl)cc2)cc1 (stereo not drawn)
4. Cc1ccc(/C=C2\CNCC3=C2N=C2SC=C(c4ccc(F)cc4)N2C3c2ccc(C)cc2)cc1 (stereo not drawn)
5. S=C1NC2/C(=C/c3ccccc3)CNCC2C(c2ccccc2)N1 (stereo not drawn)
6. Fc1ccc(/C=C2\CNCC3=C2N=C2SC=C(c4ccccc4)N2C3c2ccc(F)cc2)cc1 (stereo not drawn)

Given back:
[5.93, 5.12, 4.56, 5.31, 5.42, 5.40]

// for each compound in input: emit pIC50
1. COc1ccc(C2=CSC3=NC4=C(CNC/C4=C\c4ccccc4Cl)C(c4ccccc4Cl)N23)cc1 (stereo not drawn)
2. Cc1ccc(/C=C2\CNCC3=C2N=C2SC=C(c4ccc(Cl)cc4)N2C3c2ccc(C)cc2)cc1 (stereo not drawn)
3. COc1ccc(C2=CSC3=NC4=C(CNC/C4=C\c4ccc(F)cc4)C(c4ccc(F)cc4)N23)cc1 (stereo not drawn)
4. S=C1NC2/C(=C/c3ccccc3Cl)CNCC2C(c2ccccc2Cl)N1 (stereo not drawn)
5. C1=C(c2ccccc2)N2C(=NC3=C(CNC/C3=C\c3ccccc3)C2c2ccccc2)S1 (stereo not drawn)
6. Fc1ccc(C2=CSC3=NC4=C(CNC/C4=C\c4ccccc4Cl)C(c4ccccc4Cl)N23)cc1 (stereo not drawn)

Given back:
4.90
4.49
4.58
5.54
5.76
5.33

Go through the list and state pIC50 for each entry.
1. COc1ccc(C2=CSC3=NC4=C(CNC/C4=C\c4ccccc4OC)C(c4ccccc4OC)N23)cc1 (stereo not drawn)
2. Fc1ccc(C2=CSC3=NC4=C(CNC/C4=C\c4ccccc4)C(c4ccccc4)N23)cc1 (stereo not drawn)

Given back:
1. 4.73
2. 5.10

* * *

# protocol: Selectivity ratio of IC50 for equine serum butyrylcholinesterase to IC50 for Electrophorus electricus acetylcholinesterase
Entries are sorted into classes by Ratio IC50 as follows: 0 = under 1, 1 = from 1 up to 2, 2 = 2 and over

Answered examples (4):
compound	group.label
Clc1ccc(C2=CSC3=NC4=C(CNC/C4=C\c4ccccc4Cl)C(c4ccccc4Cl)N23)cc1 (stereo unspecified)	1
COc1ccccc1/C=C1\CNCC2=C1N=C1SC=C(c3ccc(Cl)cc3)N1C2c1ccccc1OC (stereo unspecified)	2
Clc1ccc(C2=CSC3=NC4=C(CNC/C4=C\c4ccccc4)C(c4ccccc4)N23)cc1 (stereo unspecified)	1
Cc1ccc(/C=C2\CNCC3=C2N=C2SC=C(c4ccc(Cl)cc4)N2C3c2ccc(C)cc2)cc1 (stereo unspecified)	1

Asked: Dear colleague, I would appreciate it if you could identify the bin for COc1ccc(C2=CSC3=NC4=C(CNC/C4=C\c4ccc(F)cc4)C(c4ccc(F)cc4)N23)cc1 (stereo unspecified) and reply at your convenience.
Given back: 1

Asked: Assign a category based on measured Ratio IC50 for Fc1ccc(C2=CSC3=NC4=C(CNC/C4=C\c4ccc(Cl)cc4)C(c4ccc(Cl)cc4)N23)cc1 (stereo unspecified) and give only the class name.
Given back: 2

Asked: Category of COc1ccccc1/C=C1\CNCC2=C1N=C1SC=C(c3ccccc3)N1C2c1ccccc1OC (stereo unspecified) , please.
Given back: 0

Asked: Place this compound in its band: Clc1ccc(/C=C2\CNCC3=C2N=C2SC=C(c4ccccc4)N2C3c2ccc(Cl)cc2)cc1 (stereo unspecified)
Given back: 1

Asked: Field: class (Ratio IC50) — entry: Fc1ccc(C2=CSC3=NC4=C(CNC/C4=C\c4ccccc4)C(c4ccccc4)N23)cc1 (stereo unspecified)
Given back: 0

Asked: Could you tell me which band Fc1ccc(/C=C2\CNCC3=C2N=C2SC=C(c4ccc(F)cc4)N2C3c2ccc(F)cc2)cc1 (stereo unspecified) belongs to?
Given back: 1
